Data provenance: patent US9434711B2

Catalogue of pIC50 readings, one per entry.
Target: canine TRPM8 (Canis lupus familiaris, UniProt Q1A7N1)
Sequence (Q1A7N1 1-1104): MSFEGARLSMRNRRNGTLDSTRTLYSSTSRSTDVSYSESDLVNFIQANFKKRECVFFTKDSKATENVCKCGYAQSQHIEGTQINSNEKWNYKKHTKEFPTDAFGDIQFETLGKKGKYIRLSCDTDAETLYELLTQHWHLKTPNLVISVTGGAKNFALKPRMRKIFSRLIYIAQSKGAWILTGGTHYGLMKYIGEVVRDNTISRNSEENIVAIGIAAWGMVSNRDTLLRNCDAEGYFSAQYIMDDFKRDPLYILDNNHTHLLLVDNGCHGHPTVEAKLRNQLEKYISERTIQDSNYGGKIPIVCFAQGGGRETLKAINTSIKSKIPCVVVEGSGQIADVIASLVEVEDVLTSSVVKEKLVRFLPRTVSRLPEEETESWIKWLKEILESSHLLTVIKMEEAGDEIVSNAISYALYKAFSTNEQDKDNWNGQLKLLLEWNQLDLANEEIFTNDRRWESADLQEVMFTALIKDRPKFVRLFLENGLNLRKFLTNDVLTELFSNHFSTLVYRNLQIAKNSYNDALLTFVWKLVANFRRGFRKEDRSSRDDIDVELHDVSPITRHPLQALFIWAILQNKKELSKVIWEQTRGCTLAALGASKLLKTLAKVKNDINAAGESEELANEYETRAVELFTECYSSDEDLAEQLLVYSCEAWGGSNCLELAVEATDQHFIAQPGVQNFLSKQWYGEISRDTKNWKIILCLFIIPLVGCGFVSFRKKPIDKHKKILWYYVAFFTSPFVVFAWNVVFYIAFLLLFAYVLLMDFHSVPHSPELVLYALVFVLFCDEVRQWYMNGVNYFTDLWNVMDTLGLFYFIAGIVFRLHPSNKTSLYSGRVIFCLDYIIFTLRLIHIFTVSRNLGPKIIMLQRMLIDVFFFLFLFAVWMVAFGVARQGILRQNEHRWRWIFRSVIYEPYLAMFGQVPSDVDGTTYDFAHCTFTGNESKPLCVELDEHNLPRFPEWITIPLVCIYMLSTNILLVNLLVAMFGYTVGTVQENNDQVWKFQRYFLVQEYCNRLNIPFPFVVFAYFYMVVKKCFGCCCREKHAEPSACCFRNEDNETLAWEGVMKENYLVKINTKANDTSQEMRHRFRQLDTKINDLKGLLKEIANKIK
Experiment: In Vitro Canine TRPM8 Functional Assay (Ca2+ fluorescence, icilin activation)
Format: cell-based
Settings: HEK293 cells stably expressing canine TRPM8; icilin activation; eight-point dose-response; read-out: IC50
pIC50 field: float, defined as -log10 of concentration (mol/L).

Known results for compounds:
CCS(=O)(=O)N(Cc1ccc(F)c(C(F)(F)F)c1)c1sc2ccccc2c1C(C)=O 8.52
CS(=O)(=O)Nc1ccc(S(=O)(=O)N(Cc2ccc(F)c(C(F)(F)F)c2)c2sc3ccccc3c2Br)cc1 7.95
O=S(=O)(c1ccccc1)N(Cc1ccc(F)c(F)c1)c1cc2ccccc2s1 7.62
CCCCN(C1=C(OC)c2ccccc2S1(=O)=O)S(=O)(=O)c1ccc(C(=O)OC)cc1 8.40

Shifting focus to the compound that follows.
Q: Return value of pIC50 for input Cc1c(N(Cc2ccc(OC(F)(F)F)cc2)S(=O)(=O)c2cn(C)cn2)sc2ccccc12 , no commentary.
Result: 7.48

----------
Biological target: canine TRPM8 (Canis lupus familiaris)
Assay: In Vitro Canine TRPM8 Functional Assay (Ca2+ fluorescence, icilin activation)
Type: cell-based
Conditions: compound at 0.2 μM; canine TRPM8, icilin activation; read-out: % Inh @ 0.2
Catalogue of inhibition at 0.2 µM readings, one per entry.
Numeric only. Scale: %

Known results for compounds:
compound	measurement units	inhibition at 0.2 µM
CS(=O)(=O)Nc1cccc(S(=O)(=O)N(CCC(F)(F)F)c2cc3ccccc3s2)c1	%	47
CCCCN(c1sc2cc(C(F)(F)F)ccc2c1C)S(=O)(=O)c1ccc(C(=O)O)cc1	%	80.9
Cc1c(N(CCCC(F)(F)F)S(=O)(=O)c2cccc(C#N)c2)sc2ccccc12	%	94.4

Q: Return value of inhibition at 0.2 µM for input CCCCN(c1cc2ccccc2s1)S(=O)(=O)c1ccc(-c2nnn[nH]2)cc1 , no commentary.
Result: 97

Q: Return value of inhibition at 0.2 µM for input CCCCN(c1cc2ccccc2s1)S(=O)(=O)c1ccc(-c2noc(=O)[nH]2)cc1 , no commentary.
Result: 81

----------
Molecular target: canine TRPM8 (Canis lupus familiaris, UniProt Q1A7N1)
Assay: In Vitro Canine TRPM8 Functional Assay (Ca2+ fluorescence, icilin activation)
Format: cell-based
Conditions: HEK293 cells stably expressing canine TRPM8; icilin activation; eight-point dose-response; read-out: IC50
Catalogue of IC50 readings, one per entry.
Returns: string containing the numeric result and its unit.

Known results for molecules:
molecule	IC50
O=S(=O)(c1cccnc1)N(Cc1ccc(OC(F)(F)F)cc1)c1sc2ccccc2c1Br [Compound 323]	10 nM
O=S(=O)(c1ccc(-c2nnn[nH]2)cc1)N(CC1CC1)c1sc2ccccc2c1Br [Compound 474]	8 nM
Cc1c(N(Cc2cccc(OC(F)(F)F)c2)S(=O)(=O)CCCO)sc2ccccc12 [Compound 764]	22.1 nM
CC(=O)c1c(N(Cc2ccc(F)c(C(F)(F)F)c2)S(C)(=O)=O)sc2ccccc12 [Compound 228]	6 nM

Q: Return value of IC50 for input CCCCN(c1sc2ccccc2c1C)S(C)(=O)=O [Compound 363] , no commentary.
Result: 51 nM

Q: Return value of IC50 for input Nc1ccc(S(=O)(=O)N(CCCCC(F)(F)F)c2sc3ccccc3c2Br)cc1 [Compound 668] , no commentary.
Result: 5 nM

Q: Return value of IC50 for input O=S(=O)(c1ccccc1)N(Cc1ccc(Cl)cc1)c1cc2ccccc2s1 [Compound 46] , no commentary.
Result: 84 nM

Q: Return value of IC50 for input CN(C)Cc1c(N(Cc2ccc(F)c(C(F)(F)F)c2)S(=O)(=O)c2ccccc2)sc2ccccc12 [Compound 418] , no commentary.
Result: 69 nM

Q: Return value of IC50 for input O=C(O)c1ccc(S(=O)(=O)N(Cc2ccc(F)c(C(F)(F)F)c2)c2sc3ccccc3c2C2CCC2)cc1 [Compound 698] , no commentary.
Result: 2 nM

Q: Return value of IC50 for input Cc1c(N(CCCCC(F)(F)F)S(=O)(=O)c2cccc3nccnc23)sc2ccccc12 [Compound 721] , no commentary.
Result: 4.2 nM

Q: Return value of IC50 for input Cc1c(N(Cc2ccc(F)c(F)c2)S(=O)(=O)c2ccccc2F)sc2ccccc12 [Compound 128] , no commentary.
Result: 9 nM

Q: Return value of IC50 for input CC(=O)Nc1ccc(S(=O)(=O)N(Cc2ccc(F)c(C(F)(F)F)c2)c2sc3ccccc3c2C)cc1Cl [Compound 336] , no commentary.
Result: 15 nM

Q: Return value of IC50 for input Cc1c(N(Cc2cccc(OC(F)(F)F)c2)S(=O)(=O)C2CC2)sc2ccccc12 [Compound 770] , no commentary.
Result: 7.2 nM
